The reported numbers originate from patent US8524702B2.

- target of assay: TLR7 (Homo sapiens)
- Sequence (Q9NYK1 27-1049): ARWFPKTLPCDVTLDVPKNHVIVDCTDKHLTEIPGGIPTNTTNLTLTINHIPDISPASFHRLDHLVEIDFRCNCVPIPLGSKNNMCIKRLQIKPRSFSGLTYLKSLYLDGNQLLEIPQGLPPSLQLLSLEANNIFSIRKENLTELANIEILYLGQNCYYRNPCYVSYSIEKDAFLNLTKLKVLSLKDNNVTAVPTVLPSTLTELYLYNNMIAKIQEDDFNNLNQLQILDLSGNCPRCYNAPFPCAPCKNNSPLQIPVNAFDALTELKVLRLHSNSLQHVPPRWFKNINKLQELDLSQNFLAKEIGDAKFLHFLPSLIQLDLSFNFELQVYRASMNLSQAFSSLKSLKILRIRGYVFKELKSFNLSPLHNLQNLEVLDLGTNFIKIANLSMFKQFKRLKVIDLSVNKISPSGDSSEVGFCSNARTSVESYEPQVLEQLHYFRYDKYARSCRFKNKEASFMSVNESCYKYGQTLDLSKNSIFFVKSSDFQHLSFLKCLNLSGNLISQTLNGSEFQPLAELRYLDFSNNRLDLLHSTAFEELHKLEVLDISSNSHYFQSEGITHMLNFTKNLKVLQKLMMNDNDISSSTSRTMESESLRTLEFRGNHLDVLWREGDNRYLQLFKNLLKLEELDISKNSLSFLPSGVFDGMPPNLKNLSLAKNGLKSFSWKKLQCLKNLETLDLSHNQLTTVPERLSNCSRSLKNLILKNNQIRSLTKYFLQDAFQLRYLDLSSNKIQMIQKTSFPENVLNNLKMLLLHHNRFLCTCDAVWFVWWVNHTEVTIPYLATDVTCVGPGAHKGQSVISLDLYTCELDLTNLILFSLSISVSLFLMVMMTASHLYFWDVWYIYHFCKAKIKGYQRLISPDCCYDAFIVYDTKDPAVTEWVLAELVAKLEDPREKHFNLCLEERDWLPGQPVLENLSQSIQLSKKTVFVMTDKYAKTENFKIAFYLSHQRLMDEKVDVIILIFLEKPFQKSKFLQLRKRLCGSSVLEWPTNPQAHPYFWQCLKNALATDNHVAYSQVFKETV
- method description: PBMC assay for TLR7 (IFNα in supernatants by ELISA)
- Assay type: cell-based
- Set-up: Peripheral blood mononuclear cells (PBMCs) from human blood were isolated; endogenous in cells; host or cells: human PBMCs
- reported conditions: human PBMCs incubated with compound overnight, MC50 = concentration at which 50% of the maximum induction is seen
- Protocol: Peripheral blood mononuclear cells (PBMCs) from human blood were isolated using BD Vacutainer Cell Preparation Tubes with sodium citrate. Cells were incubated with compound overnight. TLR8 activity was assayed by measuring the amount of TNFα in supernatants by ELISA. TLR7 activity was assayed by measuring the amount of IFNα in supernatants by ELISA (R&D Systems). […] The results of this assay are shown below in Tables 2 and 3. […]
measure name: EC50

Q. Can you share its EC50? I mean this compound: CCCN(CCC)C(=O)C1=Cc2ccc(-c3ccc(C#N)cc3)cc2N=C(N)C1
A. 10 to 100 µM

Q. Can you share its EC50? I mean this compound: CCCN(C[C@H](C)O)C(=O)C1=Cc2ccc(-c3ccc(C(=O)N4CCCC4)cc3)cc2N=C(N)C1 (single isomer, unassigned)
A. 1 to 10 µM

Q. Can you share its EC50? I mean this compound: CCCN(CCC)C(=O)C1=Cc2ccc(-c3ccc(C(=O)OCC)cc3)cc2N=C(N)C1
A. 1 to 10 µM

Q. Can you share its EC50? I mean this compound: CCCN(C[C@@H](C)O)C(=O)C1=Cc2ccc(-c3ccc(C(=O)N4CCCC4)cc3)cc2N=C(N)C1 (single isomer, unassigned)
A. 1 to 10 µM

Q. Can you share its EC50? I mean this compound: CCCN(CCC)C(=O)C1=Cc2ccc(-c3cccc(C(=O)N(C)C)c3)cc2N=C(N)C1
A. 1 to 10 µM

Q. Can you share its EC50? I mean this compound: CCCN(CCC)C(=O)C1=Cc2ccc(-c3ccc(C(=O)OC)cc3)cc2N=C(N)C1
A. 1 to 10 µM

Q. Can you share its EC50? I mean this compound: CCCN(CCCO)C(=O)C1=Cc2ccc(-c3ccc(C(=O)OCC)cc3)cc2N=C(N)C1
A. 10 to 100 µM

Q. Can you share its EC50? I mean this compound: CCCN(CCC)C(=O)C1=Cc2ccc(-c3ccc(C(=O)N4CC[C@H](O)C4)cc3)cc2N=C(N)C1
A. 1 to 10 µM

Q. Can you share its EC50? I mean this compound: CCCN(CCCO)C(=O)C1=Cc2ccc(-c3ccc(C(=O)N4CC[C@H](O)C4)cc3)cc2N=C(N)C1
A. 1 to 10 µM

Q. Can you share its EC50? I mean this compound: CCCN(CCOC)C(=O)C1=Cc2ccc(-c3ccc(C(=O)N4CCCC4)cc3)cc2N=C(N)C1
A. 1 to 10 µM

Q. Can you share its EC50? I mean this compound: CCCN(CCC)C(=O)C1=Cc2ccc(-c3ccc(O)cc3)cc2N=C(N)C1
A. 0.1 to 1 µM

Q. Can you share its EC50? I mean this compound: CCCN(CCC)C(=O)C1=Cc2ccc(-c3ccc(C(=O)N(CC)CC)cc3)cc2N=C(N)C1
A. 1 to 10 µM

Q. Can you share its EC50? I mean this compound: CCCN(CCCO)C(=O)C1=Cc2ccc(-c3ccc(C(=O)OCC)c(F)c3)cc2N=C(N)C1
A. 1 to 10 µM

Q. Can you share its EC50? I mean this compound: CCCN(CCC)C(=O)C1=Cc2ccc(-c3cccc(C#N)c3)cc2N=C(N)C1
A. 1 to 10 µM

Q. Can you share its EC50? I mean this compound: CCCN(CCC)C(=O)C1=Cc2ccc(-c3cccnc3)cc2N=C(N)C1
A. 1 to 10 µM

Q. Can you share its EC50? I mean this compound: CCCN(CCC)C(=O)C1=Cc2ccc(-c3cncnc3)cc2N=C(N)C1
A. 0.1 to 1 µM

Q. Can you share its EC50? I mean this compound: CCCN(CCC)C(=O)C1=Cc2ccc(-c3ccccc3C(=O)OCC)cc2N=C(N)C1
A. 1 to 10 µM

Q. Can you share its EC50? I mean this compound: CCCN(CC(C)(C)O)C(=O)C1=Cc2ccc(-c3ccc(C(=O)N4CCCC4)cc3)cc2N=C(N)C1
A. 10 to 100 µM

Q. Can you share its EC50? I mean this compound: NC1=Nc2cc(-c3ccc(C(=O)N4CCCC4)cc3)ccc2C=C(C(=O)N2C[C@@H](O)[C@H](O)C2)C1
A. 10 to 100 µM

Q. Can you share its EC50? I mean this compound: CCCN(CC(C)O)C(=O)C1=Cc2ccc(-c3ccc(C(=O)N4CCCC4)cc3)cc2N=C(N)C1 (stereo not shown)
A. 1 to 10 µM

Q. Can you share its EC50? I mean this compound: CCCN(CCCO)C(=O)C1=Cc2ccc(-c3ccccc3C(=O)OCC)cc2N=C(N)C1
A. 1 to 10 µM

Q. Can you share its EC50? I mean this compound: CCCN(CCCO)C(=O)C1=Cc2ccc(-c3ccc(/C=C/C(=O)OCC)cc3)cc2N=C(N)C1
A. 10 to 100 µM

Q. Can you share its EC50? I mean this compound: CCCN(CCC)C(=O)C1=Cc2ccc(-c3ccc(C(=O)OC)nc3)cc2N=C(N)C1
A. 1 to 10 µM

Q. Can you share its EC50? I mean this compound: CC(C)CN(CC(C)C)C(=O)C1=Cc2ccc(-c3ccc(C(=O)N4CCCC4)cc3)cc2N=C(N)C1
A. 1 to 10 µM

Q. Can you share its EC50? I mean this compound: CCCN(CC(N)=O)C(=O)C1=Cc2ccc(-c3ccc(C(=O)N4CCCC4)cc3)cc2N=C(N)C1
A. 0.1 to 1 µM

Q. Can you share its EC50? I mean this compound: CCCN(CCC)C(=O)C1=Cc2ccc(-c3ccc(C(=O)N4CCCCC4)cc3)cc2N=C(N)C1
A. 1 to 10 µM

Q. Can you share its EC50? I mean this compound: CCCN(CCCO)C(=O)C1=Cc2ccc(-c3ccc(C(=O)N4CCCC4)cc3)cc2N=C(N)C1
A. 1 to 10 µM

Q. Can you share its EC50? I mean this compound: CCOC(=O)C1=Cc2ccc(-c3cncnc3)cc2N=C(N)C1
A. 1 to 10 µM

Q. Can you share its EC50? I mean this compound: CCOC(=O)C1=Cc2ccc(-c3cccc(C(=O)N(C)C)c3)cc2N=C(N)C1
A. 1 to 10 µM

Q. Can you share its EC50? I mean this compound: CCCN(CCC)C(=O)C1=Cc2ccc(-c3ccc(C(=O)OCOCC)cc3)cc2N=C(N)C1
A. 1 to 10 µM

Q. Can you share its EC50? I mean this compound: CCCN(CCC)C(=O)C1=Cc2ccc(-c3ccc(C(=O)N(C)C)cc3)cc2N=C(N)C1
A. 1 to 10 µM
